target: Recombinant human integrin ανβ3 (Homo sapiens, UniProt P05106+P06756); test: Solid Phase Receptor Assay (SPRA) for ανβ3 function; conditions: plate-bound human vitronectin; read-out: αvβ3 SPRA IC50
Sequence (P06756 31-992 limits assumed): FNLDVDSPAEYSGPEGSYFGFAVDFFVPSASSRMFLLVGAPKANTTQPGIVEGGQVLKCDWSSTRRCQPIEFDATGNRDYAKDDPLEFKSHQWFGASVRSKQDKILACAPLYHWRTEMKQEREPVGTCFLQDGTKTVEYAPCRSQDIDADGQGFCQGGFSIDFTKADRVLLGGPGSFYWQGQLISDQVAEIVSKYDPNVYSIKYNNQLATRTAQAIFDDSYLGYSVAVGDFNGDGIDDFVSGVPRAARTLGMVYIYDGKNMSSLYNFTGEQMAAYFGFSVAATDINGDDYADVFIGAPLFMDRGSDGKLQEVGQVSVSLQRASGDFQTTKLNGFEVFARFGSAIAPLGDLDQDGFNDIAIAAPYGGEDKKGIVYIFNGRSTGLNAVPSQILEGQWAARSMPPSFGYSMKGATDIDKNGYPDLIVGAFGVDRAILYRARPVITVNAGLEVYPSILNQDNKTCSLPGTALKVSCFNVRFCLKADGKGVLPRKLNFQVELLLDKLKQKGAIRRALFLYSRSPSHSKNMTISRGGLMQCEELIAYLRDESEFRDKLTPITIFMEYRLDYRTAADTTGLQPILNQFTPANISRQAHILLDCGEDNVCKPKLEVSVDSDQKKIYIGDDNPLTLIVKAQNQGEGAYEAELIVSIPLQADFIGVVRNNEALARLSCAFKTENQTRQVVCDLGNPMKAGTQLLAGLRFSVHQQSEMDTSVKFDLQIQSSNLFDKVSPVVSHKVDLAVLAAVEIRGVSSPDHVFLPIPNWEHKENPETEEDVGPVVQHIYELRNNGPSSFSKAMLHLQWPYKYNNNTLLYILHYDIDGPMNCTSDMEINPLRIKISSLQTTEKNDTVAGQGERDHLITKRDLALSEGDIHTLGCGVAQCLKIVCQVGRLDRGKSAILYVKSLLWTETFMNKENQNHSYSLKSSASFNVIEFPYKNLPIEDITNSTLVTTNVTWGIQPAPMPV
Sequence (P05106 27-718 limits assumed): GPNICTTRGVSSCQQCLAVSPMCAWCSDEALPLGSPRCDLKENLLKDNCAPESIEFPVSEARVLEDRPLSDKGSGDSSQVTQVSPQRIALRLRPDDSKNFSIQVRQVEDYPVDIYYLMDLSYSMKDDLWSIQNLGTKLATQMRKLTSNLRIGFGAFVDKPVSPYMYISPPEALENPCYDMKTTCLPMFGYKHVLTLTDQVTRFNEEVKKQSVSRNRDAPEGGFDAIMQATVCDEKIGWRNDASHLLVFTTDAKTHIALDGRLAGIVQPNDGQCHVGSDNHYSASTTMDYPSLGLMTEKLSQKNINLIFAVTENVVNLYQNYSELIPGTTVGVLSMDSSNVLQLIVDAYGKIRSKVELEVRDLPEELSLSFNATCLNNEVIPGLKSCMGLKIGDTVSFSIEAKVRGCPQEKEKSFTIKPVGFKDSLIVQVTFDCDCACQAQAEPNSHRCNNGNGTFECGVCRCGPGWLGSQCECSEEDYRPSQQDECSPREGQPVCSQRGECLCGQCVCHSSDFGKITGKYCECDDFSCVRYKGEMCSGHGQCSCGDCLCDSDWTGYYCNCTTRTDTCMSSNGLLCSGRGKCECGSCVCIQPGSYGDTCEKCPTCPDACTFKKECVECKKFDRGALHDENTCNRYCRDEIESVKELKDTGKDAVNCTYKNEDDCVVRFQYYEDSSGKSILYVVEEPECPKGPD
Where a name gives a salt, the structure may show the parent alone.
# strict inequality: IC50 < 5 nM yields condition met, everything else yields condition not met

molecule	tested on	group
COCC1(c2cc(Cl)cc(C(CC(=O)O)Cc3cc(OCCc4ccc5c(n4)NCCC5)n(C)n3)c2)CCOCC1 (stereo not shown)	Recombinant human integrin ανβ3 (Homo sapiens, UniProt P05106+P06756)	condition not met
Cn1nc(CC(CC(=O)O)c2cc(Cl)cc(C(C)(C)C(F)(F)F)c2)cc1OCCc1ccc2c(n1)NCCC2 (stereo not shown)	Recombinant human integrin ανβ3 (Homo sapiens, UniProt P05106+P06756)	condition not met
Cn1nc(CC(CC(=O)O)c2cc(C(C)(C)C)cc(C(C)(C)C)c2)cc1OCCc1ccc2c(n1)NCCC2 (stereo not shown)	Recombinant human integrin ανβ3 (Homo sapiens, UniProt P05106+P06756)	condition not met
Cn1nc(CC(CC(=O)O)c2ccc(Br)c(F)c2)cc1OCCc1ccc2c(n1)NCCC2 (stereo not shown)	Recombinant human integrin ανβ3 (Homo sapiens, UniProt P05106+P06756)	condition met
Cn1nc(CC(CC(=O)O)c2ccc(C#N)c(F)c2)cc1OCCc1ccc2c(n1)NCCC2 (stereo not shown)	Recombinant human integrin ανβ3 (Homo sapiens, UniProt P05106+P06756)	condition not met
CC(C)(C)c1cc(Br)cc(C(CC(=O)O)Cc2cc(OCCc3ccc4c(n3)NCCC4)n(CC(F)(F)F)n2)c1 (stereo not shown) [Example 41, Trifluoroacetate]	Recombinant human integrin ανβ3 (Homo sapiens, UniProt P05106+P06756)	condition not met
